Test system: CCRIS mutagenicity, Ames/micronucleus/aberration tests
Assay: CCRIS mutagenicity studies
Conditions: Test System: AMES SALMONELLA TYPHIMURIUM; Strain/Indicator: TA100; Metabolic Activation: NONE; Method: STANDARD PLATE
Excerpt: The CCRIS database contains chemical records with carcinogenicity, mutagenicity, tumor promotion, and tumor inhibition test results. It was developed by the National Cancer Institute (NCI). Data are derived from studies cited in primary journals, current awareness tools, NCI reports, and other sources. Test results have been reviewed by experts in carcinogenesis and mutagenesis. CCRIS provides historical information from the years 1985 - 2011. It is no longer updated. […]
Active and inactive are the calls of the source. The rule behind the calls is not given here.
parameter-measured: mutagenic call

# molecule Cn1c2ccccc2c2cc(N)ccc21 ; its mutagenic call = active; positive

# molecule Cc1cc(N)c(C)c2c1[nH]c1ccccc12 ; its mutagenic call = inactive; negative

# molecule CN(C)CCCN1c2ccccc2CCc2ccccc21 ; its mutagenic call = inactive; negative

# molecule CCOC(=O)C1C(C=C(C)C)C1(C)C (centres undefined) ; its mutagenic call = inactive; negative

# molecule c1cnc2c3c(ccc2c1)CC[C@H]1O[C@@H]31 ; its mutagenic call = active; positive

Next:
# molecule c1ccc(NNc2ccccc2)cc1 ; its mutagenic call = inactive; negative

# molecule Cc1ccc(NC(=O)N(C)C)cc1Cl ; its mutagenic call = inactive; negative

# molecule O=Cc1cccc(-c2ccccc2)c1 ; its mutagenic call = inactive; negative

# molecule CC1=CC=C(C(C)C)CC1 ; its mutagenic call = inactive; negative

* * *

System: CCRIS mutagenicity, Ames/micronucleus/aberration tests
Test: CCRIS mutagenicity studies
Details: Test System: AMES SALMONELLA TYPHIMURIUM; Strain/Indicator: TA1537; Metabolic Activation: RAT, LIVER, S-9, AROCLOR 1254; Method: STANDARD PLATE
The source made the active and inactive calls. The rule behind the calls is not given here.
Lab note: assign the record to one of 1 (yes) (active), 0 (no) (inactive)

IN: Name the outcome recorded for O=c1[nH][nH]c2ccccc12 in the assay.
OUT: 0 (no)

Next:
IN: Name the outcome recorded for CCCCCCCCCCCCCCCC(=O)OC[C@H](O)[C@H]1OC(=O)C(O)=C1O in the assay.
OUT: 0 (no)

IN: Name the outcome recorded for O=P(O)(O)OCC(O)CO (configuration not stated) in the assay.
OUT: 0 (no)

IN: Name the outcome recorded for O=[N+]([O-])C1=Cc2cc3cc4ccccc4cc3c3cccc1c23 in the assay.
OUT: 1 (yes)

* * *

Tested on: CCRIS mutagenicity, Ames/micronucleus/aberration tests
Assay: CCRIS mutagenicity studies
Settings: Test System: AMES SALMONELLA TYPHIMURIUM; Strain/Indicator: TA104; Metabolic Activation: NONE; Method: PREINCUBATION
Source text: The CCRIS database contains chemical records with carcinogenicity, mutagenicity, tumor promotion, and tumor inhibition test results. It was developed by the National Cancer Institute (NCI). Data are derived from studies cited in primary journals, current awareness tools, NCI reports, and other sources. Test results have been reviewed by experts in carcinogenesis and mutagenesis. CCRIS provides historical information from the years 1985 - 2011. It is no longer updated. […]
The source made the active and inactive calls. How the calls were made is not given here.
parameter-measured: mutagenic call

# compound O=Cc1ccccc1Cl ; its mutagenic call = inactive; negative

# compound O=C1CCCO1 ; its mutagenic call = inactive; negative

# compound C/C=C/C=O ; its mutagenic call = active; positive

# compound CCOC(C)=O ; its mutagenic call = inactive; negative

# compound O=Cc1ccc(CO)o1 ; its mutagenic call = inactive; negative

Next:
# compound Oc1ccc(O)c(O)c1 ; its mutagenic call = inactive; negative

# compound C=C(C)CCl ; its mutagenic call = inactive; negative

* * *

System: CCRIS mutagenicity, Ames/micronucleus/aberration tests
Assay: CCRIS mutagenicity studies
Conditions: Test System: AMES SALMONELLA TYPHIMURIUM; Strain/Indicator: TM677; Metabolic Activation: RAT, LIVER, S-9, AROCLOR 1254; Method: PREINCUBATION
Activity calls are given as the source filed them. No rule for the calls is given here.
Lab note: assign the record to one of active, inactive

Worked set:
IN: Name the outcome recorded for C[C@@]12CC[C@@H]3[C@@](CC[C@H]4[C@@]3(C)CCC[C@@]4(C)C(=O)O)(CC1=O)C2 in the assay.
OUT: inactive

IN: Name the outcome recorded for C=C1C[C@@]23CC[C@H]4[C@@](C)(CCC[C@@]4(C)C(=O)O)[C@@H]2CC[C@]1(O[C@@H]1O[C@H](CO)[C@@H](O)[C@H](O)[C@H]1O)C3 in the assay.
OUT: active

Next, consider the following compound.
IN: Name the outcome recorded for C=C1C[C@@]23CC[C@H]4[C@@](C)(CCC[C@@]4(C)C(=O)O[C@@H]4O[C@H](CO)[C@@H](O)[C@H](O)[C@H]4O)[C@@H]2CC[C@]1(O[C@@H]1O[C@H](CO)[C@@H](O)[C@H](O)[C@H]1O[C@@H]1O[C@@H](C)[C@H](O)[C@@H](O)[C@H]1O)C3 in the assay.
OUT: inactive

* * *

Tested on: CCRIS mutagenicity, Ames/micronucleus/aberration tests
Test: CCRIS mutagenicity studies
Details: Test System: AMES SALMONELLA TYPHIMURIUM; Strain/Indicator: TA100; Metabolic Activation: NONE; Method: STANDARD PLATE
Active and inactive are the calls of the source. No rule for the calls is given here.
Lab note: assign the record to one of class 1 = active, class 0 = inactive

IN: Name the outcome recorded for Nc1cc(Cl)c(Cl)c(Cl)c1 in the assay.
OUT: class 0

IN: Name the outcome recorded for CC(C)C[C@@H]1NC(=O)CNC1=O in the assay.
OUT: class 0

IN: Name the outcome recorded for COc1ccc(CON(OC(C)=O)C(=O)c2ccccc2)cc1 in the assay.
OUT: class 1

IN: Name the outcome recorded for Br/C=C/Br in the assay.
OUT: class 1

IN: Name the outcome recorded for N#CCCl in the assay.
OUT: class 0

Next:
IN: Name the outcome recorded for Nc1ccc2snc(Cl)c2c1 in the assay.
OUT: class 1

IN: Name the outcome recorded for COCC(=O)O in the assay.
OUT: class 0

IN: Name the outcome recorded for ClCC(CCl)(CCl)CCl in the assay.
OUT: class 0

IN: Name the outcome recorded for CCN(CC)c1ccc(N=Nc2ccc(N=Nc3c(S(=O)(=O)O)cc4ccc(N)cc4c3O)c(OCCO)c2)cc1 in the assay.
OUT: class 0

* * *

Tested on: CCRIS mutagenicity, Ames/micronucleus/aberration tests
Assay: CCRIS mutagenicity studies
Conditions: Test System: CHINESE HAMSTER V-79; Strain/Indicator: V-79/6-THIOGUANINE; Metabolic Activation: NONE; Method: STANDARD PLATE
The source made the active and inactive calls. No rule for the calls is given here.
parameter-measured: mutagenic call

# compound CN(C)CCCNc1c2ccccc2nc2cccc([N+](=O)[O-])c12 ; its mutagenic call = active; positive

# compound CCOP(=O)(OCC)N1[C@@H]2c3ccccc3-c3ccccc3[C@@H]21 (stereo partly specified) ; its mutagenic call = active; positive

# compound CC(C)(S)[C@@H](N)C(=O)O ; its mutagenic call = inactive; negative

# compound CC(C)=C[C@H]1[C@@H](C(=O)OCc2coc(Cc3ccccc3)c2)C1(C)C ; its mutagenic call = inactive; negative

Next:
# compound CCC[N+](=O)[O-] ; its mutagenic call = active; positive

# compound CC(=O)N[C@@H](CS)C(=O)O ; its mutagenic call = inactive; negative

* * *

Test system: CCRIS mutagenicity, Ames/micronucleus/aberration tests
Test: CCRIS mutagenicity studies
Conditions: Test System: AMES SALMONELLA TYPHIMURIUM; Strain/Indicator: TA100; Metabolic Activation: RAT, LIVER, S-9, AROCLOR 1254 (30%); Method: PREINCUBATION
Description: The CCRIS database contains chemical records with carcinogenicity, mutagenicity, tumor promotion, and tumor inhibition test results. It was developed by the National Cancer Institute (NCI). Data are derived from studies cited in primary journals, current awareness tools, NCI reports, and other sources. Test results have been reviewed by experts in carcinogenesis and mutagenesis. CCRIS provides historical information from the years 1985 - 2011. It is no longer updated. […]
Activity calls are given as the source filed them. No rule for the calls is given here.
parameter-measured: mutagenic call

# compound CN1CCC(CN2c3ccccc3Sc3ccccc32)C1 (stereo not drawn) ; its mutagenic call = inactive; negative

# compound [CH3][Hg+] ; its mutagenic call = inactive; negative

# compound ClC(Cl)(Cl)c1ccccc1 ; its mutagenic call = active; positive

# compound C[C@H](CCC(=O)O)[C@H]1CC[C@H]2[C@@H]3CC[C@@H]4C[C@H](O)CC[C@]4(C)[C@H]3CC[C@]12C ; its mutagenic call = inactive; negative

# compound COP(=O)(OC)OC=C(Cl)Cl ; its mutagenic call = active; positive

Next:
# compound ClC(Cl)=C(Cl)C(Cl)=C(Cl)Cl ; its mutagenic call = active; positive

# compound FCC1CO1 (stereo not drawn) ; its mutagenic call = active; positive

# compound COP(=O)(OC)OC ; its mutagenic call = active; positive

These measurements were taken from PubChem BioAssay AID1259407.
